System: Wnt5a (protein binding on small-molecule microarray)
method: small molecules binding Wnt5a protein – biophysical, small-molecule microarray, 635/667 nm fluorescence, primary screen (AID 1142);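 further: fluorescence read at 667 nm with signal to noise per printed feature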
details: 635 nm fluorescence, higher = more signal
reported endpoint: composite z-score
Reply briefly: the number, and no unit.

O=C1O[C@H](c2ccccc2)[C@H](c2ccccc2)N2[C@H]1[C@@H](C(=O)N1CCN(c3ncccn3)CC1)[C@]1(C(=O)Nc3ccc(C#CCCO)cc31)[C@H]2c1ccc(O)cc1    0.313
[N-]=[N+]=Nc1ccccc1[C@@H]1OC(c2ccc(OCCCO)cc2)=N[C@]1(CCS(=O)(=O)c1ccccc1)C(=O)NCC(O)CO (stereo partly specified)    -0.0534
COCCOC(=O)N1C(=O)[C@@]2(c3cc(C#CC4(O)CCCCCC4)ccc31)[C@H](c1ccc(O)cc1)N1[C@H](c3ccccc3)[C@H](c3ccccc3)OC(=O)[C@H]1[C@@H]2C(=O)N1CCCCCCC1    0.357
C=CCC(OC(C)=O)[C@@H]1[C@@H](N(Cc2cccc3ccccc23)C(=O)Cc2ccc(OC)cc2)c2cc(OCCCO)ccc2N1C(=O)Cc1ccc2ccccc2c1 (stereo partly specified)    -0.0841
CC(C)[Si](C#CCCc1ccccc1)(O[C@H](c1ccccc1)c1cn(Cc2ccccc2)nn1)C(C)C    0.21

We next turn to a different compound, shown below.
Query block: For the compound COc1ccc(C#Cc2ccc3c(c2)[C@]2(C(=O)N3)[C@H](C(=O)O)[C@H]3C(=O)O[C@H](c4ccccc4)[C@H](c4ccccc4)N3[C@@H]2c2ccccc2OCCO)cc1 , what composite z-score is on record?
Result block: 0.119
